Overview of reported solubility across a group of compounds:
TEST METHOD NOTES: Solubility test in water
Type: physicochemical
CONDITION DETAILS: deionized water, thermodynamic from solid
Please reply with the bare figure in µg/mL and do not write the unit itself.

Some solved cases for reference:
[
  {
    "ENTRY SMILES": "CNCc1cn(S(=O)(=O)c2cccc(F)c2)c(-c2ccc(F)cc2F)c1OC.Cl",
    "solubility [µg/mL]": 11100
  },
  {
    "ENTRY SMILES": "CNCc1cn(S(=O)(=O)c2cccc(F)c2)c(-c2ccc(F)cc2F)c1OC.O=C(O)C(O)C(O)C(=O)O",
    "solubility [µg/mL]": 6900
  }
]

Then this compound:
Q: Output measured solubility for this item: CNCc1cn(S(=O)(=O)c2cccc(F)c2)c(-c2ccc(F)cc2F)c1OC.O=C(O)CCC(=O)O
Result: 7200
